Origin of values: the supplement of paper PMC10724198

I'd be grateful if you could share measured protein stability index for these entries.
Test system: Saccharomyces cerevisiae
Experiment: protein stability index of tFT-peptide fusion (C-terminal peptide) (PSI (0-1 scale)); higher = more stable (slower turnover)
Settings: genetic background: wild type; temperature: 30 C
One number for each entry.

Saccharomyces cerevisiae data for `WHACAGWLGQKG` ; its protein stability index: 0.71

Saccharomyces cerevisiae data for `WGGGGRGWGSRG` ; its protein stability index: 0.684

Saccharomyces cerevisiae data for `PNPHDPQLPPPH` ; its protein stability index: 0.709

Saccharomyces cerevisiae data for `PSPALGPFLAYR` ; its protein stability index: 0.695

Saccharomyces cerevisiae data for `GCCWVVISPAGY` ; its protein stability index: 0.616

Batch of 4 sequences: report protein stability index for each.
1. PHTGVKRDIENE
2. VYGGFGGGRWVI
3. TLFSVGSDAMIV
4. PRSPPPSSSTPD

**Result**
0.693
0.702
0.708
0.688

---

Tested on: Saccharomyces cerevisiae
Assay: protein stability index of tFT-peptide fusion (C-terminal peptide) (PSI (0-1 scale)); higher = more stable (slower turnover)
Conditions: genetic background: wild type; temperature: 30 C
readout name: protein stability index
Numbers only.

Please review the entries below; each comes with its answer.
The sequence identified as LSKMYIGWLPFW [MEC1 C-terminal 12 aa] registered its protein stability index at 0.683

The sequence identified as VAVASASSSASS [VPH1 C-terminal 12 aa] registered its protein stability index at 0.682

The sequence identified as SGIKEFFDNYKS [ARO9 C-terminal 12 aa] registered its protein stability index at 0.716

The sequence identified as KFFNYDGSEGVF [OSI1 C-terminal 12 aa] registered its protein stability index at 0.715

The sequence identified as DFVYNEEDFEKL [NOT5 C-terminal 12 aa] registered its protein stability index at 0.681

Batch of 4 sequences: report protein stability index for each.
1. KQNSSITQKNSS [EPL1 C-terminal 12 aa]
2. VQRSASVVERQE [DUS4 C-terminal 12 aa]
3. DSMRGNSRNNMF [EBS1 C-terminal 12 aa]
4. DTSPAQEQSPAN [ARG80 C-terminal 12 aa]

**Result**
0.697
0.694
0.717
0.709

---

I'd be grateful if you could share measured protein stability index for these entries.
Tested on: Saccharomyces cerevisiae
Assay: protein stability index of tFT-peptide fusion (C-terminal peptide) (PSI (0-1 scale)); higher = more stable (slower turnover)
Conditions: genetic background: wild type; temperature: 30 C
Numbers only.

Please review the entries below; each comes with its answer.
The sequence identified as `VYVSRTRPFSLY` registered its protein stability index at 0.369

The sequence identified as `QARQLEMYMVVF` registered its protein stability index at 0.418

The sequence identified as `LLISPFLFLLVC` registered its protein stability index at 0.0605

The sequence identified as `WACAWRGMVKVG` registered its protein stability index at 0.0897

The sequence identified as `VCLFRLVVFFPV` registered its protein stability index at 0.222

The sequence identified as `VGAGVFAWLWVA` registered its protein stability index at 0.145

The sequence identified as `FYIWFFRLIYFF` registered its protein stability index at 0.331

The sequence identified as `VKSAVLLFFLVT` registered its protein stability index at 0.199

Now consider the entry below.
The sequence identified as `VMLVISRLLLLF` registered its protein stability index at 0.105
